# Test system: Human papillomavirus type 1a E7 protein (residues 1-88)
# Experimental Protocol: HPV1a E7 small-molecule binders, primary screen, biochemical, small-molecule microarray, residues 1-88, 635 nm (AID 1129)
# Test Settings: small-molecule microarray binding, fluorescence 635 nm; higher = more signal
Entries annotated with measured composite z-score
Number only, please.

[[record]]
compound = "C=C(C)C(=O)OC[C@@H]1CN2[C@@H](CC[C@@H](C)[C@@H]2c2ccc(Br)cc2)C(=O)O1"
observed_value = 0.818

[[record]]
compound = "CC(C)CCN1CCc2nc(-c3ccccc3)c3c(c2C1)CO[C@@H](C)C3"
observed_value = 0.669

[[record]]
compound = "CC(C)CON=C1C[C@@H](O)[C@@H](O)[C@@H]2[C@@H]3C(=O)N(c4cccc(Oc5ccccc5)c4)C(=O)[C@@H]3CC[C@H]12"
observed_value = 0.347

[[record]]
compound = "C[C@@H](c1ccccc1)N1C(=O)[C@H]2[C@H]3[C@H](O)[C@H](O)CC(=O)[C@@H]3CC[C@H]2C1=O"
observed_value = 0.793

[[record]]
compound = "CCOC(=O)NN=C1C[C@@H](O)[C@@H](O)[C@@H]2[C@@H]3C(=O)N(Cc4ccc5c(c4)OCO5)C(=O)[C@@H]3CC[C@@H]12"
observed_value = 0.449


Identify measured composite z-score corresponding to CO[C@H]1COC(=O)CC=C[C@@H](C)COC(=O)[C@@H](OCc2ccccc2)C=C[C@@H]1C
-1.07

Identify measured composite z-score corresponding to CCOC(=O)[C@H](CC(C)C)NC(=O)CCC1CC(OC(=O)NCc2cccc3ccccc23)CC2(CCCC(COC(=O)NCc3ccccc3)O2)O1 (some centres not stated)
-0.439
